measured on: A*3301 (Homo sapiens, UniProt P04439, A270S/D185E/E176V/E277Q/E87N/F33T/G231S/H175R/I121M/I218V/I322F/K168Q/K210R/L300P/L318F/M331R/P217A/Q86R/Q94H/R138Q/T323A/T345S/T97I/V358M/Y195H)
protocol details: biochemical
pIC50: −log10 of the molar value.
The following compounds are listed with their measured pIC50 values.

| compound | qualifying sign | pIC50 |
| --- | --- | --- |
| CSCC[C@H](NC(=O)[C@@H](N)CCCCN)C(=O)N[C@@H](Cc1ccccc1)C(=O)N[C@@H](CS)C(=O)N[C@@H](CCC(N)=O)C(=O)N[C@@H](CC(C)C)C(=O)N[C@@H](C)C(=O)N[C@@H](CCCCN)C(=O)O [Peptide 1556.52] | < | 4.70 |
| CSCC[C@H](NC(=O)[C@@H](NC(=O)[C@H](C)N)[C@@H](C)O)C(=O)N[C@@H](CS)C(=O)N[C@@H](CCCCN)C(=O)N[C@@H](Cc1c[nH]cn1)C(=O)N[C@@H](Cc1ccc(O)cc1)C(=O)N[C@@H](CCCNC(=N)N)C(=O)N[C@@H](CCCNC(=N)N)C(=O)O [Peptide 88.0343] | = | 7.13 |
